# Target: Human NK3 (hNK3) receptor (Homo sapiens (Human))
# Sequence (P29371 whole entry): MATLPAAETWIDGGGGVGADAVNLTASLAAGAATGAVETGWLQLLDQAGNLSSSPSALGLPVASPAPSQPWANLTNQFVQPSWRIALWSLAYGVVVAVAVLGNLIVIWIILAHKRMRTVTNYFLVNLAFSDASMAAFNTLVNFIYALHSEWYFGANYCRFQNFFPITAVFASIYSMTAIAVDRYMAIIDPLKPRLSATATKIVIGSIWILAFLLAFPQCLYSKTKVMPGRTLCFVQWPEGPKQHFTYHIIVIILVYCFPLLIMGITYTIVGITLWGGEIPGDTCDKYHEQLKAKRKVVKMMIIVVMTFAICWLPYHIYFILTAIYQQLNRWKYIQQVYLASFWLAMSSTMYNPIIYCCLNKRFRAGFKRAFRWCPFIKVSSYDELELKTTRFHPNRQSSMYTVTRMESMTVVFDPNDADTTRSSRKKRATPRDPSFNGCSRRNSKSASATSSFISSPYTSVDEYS
# Stated conditions: read-out: IC50 value hNK3; hNK3 receptor binding inhibition
Quantity kind: pIC50
// field semantics: pIC50 = negative decimal log of concentration (mol/L)

// pIC50 lookup, key: COC(=O)N[C@H]1CC[C@H](C(=O)N2C[C@@H](N(C)C(=O)N(C)c3cc(C(F)(F)F)cc(C(F)(F)F)c3)[C@H](c3ccc(F)cc3)C2)CC1 [Example 233]
5.96

// pIC50 lookup, key: CC(=O)N1CCC(C(=O)N2CC[C@@H](N(C)C(=O)N(C)c3cc(C(F)(F)F)cc(C(F)(F)F)c3)[C@H](c3ccc(Cl)c(Cl)c3)C2)CC1 [Example 25]
5.85

// pIC50 lookup, key: CC(=O)N1CCC(C(=O)N2CC[C@@H](N(C)C(=O)Nc3ccc(Cl)cc3)[C@H](c3ccc(Cl)c(Cl)c3)C2)CC1 [Example 61]
7.00

// pIC50 lookup, key: CN(C(=O)N(C)[C@@H]1CN(C(=O)NC2CCOCC2)C[C@H]1c1ccc(F)cc1)c1cc(C(F)(F)F)cc(C(F)(F)F)c1 [Example 378]
6.19

// pIC50 lookup, key: CC(=O)N1CCC(C(=O)N2C[C@@H](N(C)C(=O)N(C)c3cc(Cl)cc(Cl)c3)[C@H](c3ccc(F)cc3)C2)CC1 [Example 176]
6.22

From: patent US8592454B2
